Exercise: state measured viability, T/C for each of the compounds provided.
Test system: 996289-038-R-J1-PDC complex spheroid viability;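 further: spheroids exposed to the agents for 7 days before readout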
protocolText: Anticancer human tumor 996289-038-R-J1-PDC patient-derived colon adenocarcinoma cell line growth inhibition [CLK]
conditionsUsed: second compound 3.16 µM; first compound 0.003 µM; stronger effect = lower value
One number for each entry, in %.

Recorded viability, T/C, per entry:
- compound: "C=CC(=O)Nc1cc(Nc2nccc(-c3cn(C)c4ccccc34)n2)c(OC)cc1N(C)CCN(C)C + CN1CCN(c2cc(C(=O)Nc3cc4cc(-c5cnn(C)c5)ccc4cn3)ccn2)CC1"
  endpointResult: 1.11
- compound: "CC(C)CC(NC(=O)C(Cc1ccccc1)NC(=O)c1cnccn1)B(O)O (centres undefined) + CNC(=O)c1ccc(Nc2nc(OC3CCCC3)c3c(-c4ccc5nc(C)oc5c4)c[nH]c3n2)c(OC)c1"
  endpointResult: 6.51
- compound: "CC(C)CC(NC(=O)C(Cc1ccccc1)NC(=O)c1cnccn1)B(O)O (centres undefined) + CN1CCN(c2cc(C(=O)Nc3cc4cc(-c5cnn(C)c5)ccc4cn3)ccn2)CC1"
  endpointResult: 0.34

# context switch: different compound, same viability, T/C
Input: Which viability, T/C is reported with 996289-038-R-J1-PDC complex spheroid viability for this entry: C=CC(=O)Nc1cc(Nc2nccc(-c3cn(C)c4ccccc34)n2)c(OC)cc1N(C)CCN(C)C + CNC(=O)c1ccc(Nc2nc(OC3CCCC3)c3c(-c4ccc5nc(C)oc5c4)c[nH]c3n2)c(OC)c1 ?
Output: 60.8
